TARGET UNDER TEST: EGFR (Homo sapiens, UniProt P00533, DEL746-750)
Sequence (P00533 with tags, fused parts or gaps DEL746-750): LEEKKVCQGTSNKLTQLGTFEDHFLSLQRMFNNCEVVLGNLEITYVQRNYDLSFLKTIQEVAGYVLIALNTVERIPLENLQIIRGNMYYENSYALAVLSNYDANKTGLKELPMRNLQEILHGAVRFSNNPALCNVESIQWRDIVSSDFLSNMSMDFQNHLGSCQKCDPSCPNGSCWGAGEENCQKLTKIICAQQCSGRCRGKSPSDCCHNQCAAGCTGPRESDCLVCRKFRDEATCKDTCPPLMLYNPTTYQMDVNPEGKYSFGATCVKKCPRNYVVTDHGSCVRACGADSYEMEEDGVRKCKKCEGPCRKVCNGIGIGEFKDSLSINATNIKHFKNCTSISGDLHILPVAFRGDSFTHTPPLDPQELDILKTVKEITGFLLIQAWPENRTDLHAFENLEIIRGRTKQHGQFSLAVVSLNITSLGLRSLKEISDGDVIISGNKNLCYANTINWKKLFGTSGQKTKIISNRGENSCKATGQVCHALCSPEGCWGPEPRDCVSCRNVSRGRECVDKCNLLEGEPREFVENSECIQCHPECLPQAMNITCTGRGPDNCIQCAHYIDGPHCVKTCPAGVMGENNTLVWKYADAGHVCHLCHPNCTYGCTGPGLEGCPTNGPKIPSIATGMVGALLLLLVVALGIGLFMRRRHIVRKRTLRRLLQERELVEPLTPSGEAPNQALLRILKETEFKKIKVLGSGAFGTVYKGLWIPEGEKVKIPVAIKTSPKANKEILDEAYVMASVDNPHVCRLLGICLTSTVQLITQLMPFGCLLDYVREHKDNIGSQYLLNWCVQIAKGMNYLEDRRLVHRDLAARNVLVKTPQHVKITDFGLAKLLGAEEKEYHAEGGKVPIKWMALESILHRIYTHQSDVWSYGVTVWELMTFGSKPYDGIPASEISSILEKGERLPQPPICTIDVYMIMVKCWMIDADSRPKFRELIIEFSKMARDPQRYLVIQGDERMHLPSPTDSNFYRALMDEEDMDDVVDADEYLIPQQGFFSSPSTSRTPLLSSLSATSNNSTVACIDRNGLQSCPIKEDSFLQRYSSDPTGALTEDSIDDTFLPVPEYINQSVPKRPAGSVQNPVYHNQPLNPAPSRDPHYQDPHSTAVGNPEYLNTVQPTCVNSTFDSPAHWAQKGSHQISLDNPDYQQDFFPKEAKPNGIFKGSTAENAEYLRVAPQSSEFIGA
PROTOCOL SUMMARY: EGFR phosphorylation in PC9 and HCC-827 cells, […] h treatment
Format: cell-based
ASSAY READOUT: IC50

{"COMPOUND": "C=CC(=O)Nc1cccc(Nc2nc(Nc3ccc(NC4CN(CCF)C4)cc3OC)ncc2C(F)(F)F)c1 [CNX-2006]", "ASSAY READOUT": "IC50", "RESULT": "55 to 104 nM"}

---

TARGET UNDER TEST: EGFR (Homo sapiens, UniProt P00533, DEL746-750/T790M)
Sequence (P00533 with tags, fused parts or gaps DEL746-750/T790M): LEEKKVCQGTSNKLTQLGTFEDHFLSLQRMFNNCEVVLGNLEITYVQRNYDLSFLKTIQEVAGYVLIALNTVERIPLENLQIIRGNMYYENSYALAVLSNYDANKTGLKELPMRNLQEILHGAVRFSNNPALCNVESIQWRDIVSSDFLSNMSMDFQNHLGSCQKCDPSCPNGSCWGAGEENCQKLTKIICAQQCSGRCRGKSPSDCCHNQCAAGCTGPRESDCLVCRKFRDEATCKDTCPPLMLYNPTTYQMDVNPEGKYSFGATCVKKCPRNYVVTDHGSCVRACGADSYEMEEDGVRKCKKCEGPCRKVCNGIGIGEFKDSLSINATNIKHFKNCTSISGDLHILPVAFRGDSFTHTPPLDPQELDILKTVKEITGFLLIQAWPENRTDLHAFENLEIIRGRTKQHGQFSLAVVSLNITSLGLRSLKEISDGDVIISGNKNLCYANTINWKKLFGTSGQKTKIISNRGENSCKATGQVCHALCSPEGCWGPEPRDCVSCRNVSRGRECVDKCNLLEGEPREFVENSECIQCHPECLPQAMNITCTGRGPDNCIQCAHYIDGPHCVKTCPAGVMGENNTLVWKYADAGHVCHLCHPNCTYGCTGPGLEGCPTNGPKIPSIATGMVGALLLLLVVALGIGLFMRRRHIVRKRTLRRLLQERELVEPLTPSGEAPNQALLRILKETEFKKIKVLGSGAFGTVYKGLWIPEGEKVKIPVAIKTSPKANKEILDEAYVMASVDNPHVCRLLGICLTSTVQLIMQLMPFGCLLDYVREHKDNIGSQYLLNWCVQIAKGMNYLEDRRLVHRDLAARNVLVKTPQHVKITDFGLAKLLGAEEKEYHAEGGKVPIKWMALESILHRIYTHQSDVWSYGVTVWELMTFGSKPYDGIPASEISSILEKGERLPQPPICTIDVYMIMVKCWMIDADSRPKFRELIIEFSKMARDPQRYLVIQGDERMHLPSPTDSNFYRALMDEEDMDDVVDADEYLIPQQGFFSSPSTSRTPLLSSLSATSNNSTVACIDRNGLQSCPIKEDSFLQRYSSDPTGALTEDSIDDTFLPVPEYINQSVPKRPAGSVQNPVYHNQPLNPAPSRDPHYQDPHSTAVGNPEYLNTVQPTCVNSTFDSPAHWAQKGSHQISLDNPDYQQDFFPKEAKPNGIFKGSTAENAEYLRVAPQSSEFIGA
PROTOCOL SUMMARY: EGFR phosphorylation in PC9GR4 cells, […] h treatment

{"SMI": "C=CC(=O)Nc1cccc(Nc2nc(Nc3ccc(NC4CN(CCF)C4)cc3OC)ncc2C(F)(F)F)c1", "IC50": "~61 nM"}
